TARGET_UNDER_TEST: Protein kinase C eta type (Homo sapiens)
Sequence (P24723 whole entry, the tested form may be a part): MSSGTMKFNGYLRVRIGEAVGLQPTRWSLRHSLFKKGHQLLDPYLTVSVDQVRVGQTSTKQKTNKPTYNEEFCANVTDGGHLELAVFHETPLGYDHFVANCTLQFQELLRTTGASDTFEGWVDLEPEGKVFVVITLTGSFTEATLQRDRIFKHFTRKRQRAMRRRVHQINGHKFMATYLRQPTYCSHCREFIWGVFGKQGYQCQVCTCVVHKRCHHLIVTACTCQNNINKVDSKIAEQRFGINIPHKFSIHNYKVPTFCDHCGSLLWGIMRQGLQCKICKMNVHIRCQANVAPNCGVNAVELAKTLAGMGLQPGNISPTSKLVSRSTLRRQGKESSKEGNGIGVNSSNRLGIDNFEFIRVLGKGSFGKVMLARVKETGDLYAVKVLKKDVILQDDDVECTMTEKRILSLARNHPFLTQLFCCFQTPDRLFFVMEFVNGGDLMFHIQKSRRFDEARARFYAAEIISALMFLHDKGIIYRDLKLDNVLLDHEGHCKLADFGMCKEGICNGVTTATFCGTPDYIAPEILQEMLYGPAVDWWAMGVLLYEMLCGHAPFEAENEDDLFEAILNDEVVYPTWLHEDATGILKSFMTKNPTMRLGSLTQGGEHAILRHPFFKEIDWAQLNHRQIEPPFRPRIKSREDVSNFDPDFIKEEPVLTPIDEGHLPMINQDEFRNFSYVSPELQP
METHOD_DESCRIPTION: Displacement of [3H]- PDBu from Protein kinase C eta C1a domain
PROPERTY_NAME: Ki (nM)

{"MOLECULAR_STRING": "CC(C)[C@H]1C(=S)N[C@H](CO)Cc2c[nH]c3cccc(c23)N1C", "VAL": 2160}
{"MOLECULAR_STRING": "CC(C)[C@H]1C(=O)N[C@H](CO)Cc2c[nH]c3cccc(c23)N1C", "VAL": 3770}

###

TARGET_UNDER_TEST: Protein kinase C epsilon type (Homo sapiens)
METHOD_DESCRIPTION: Displacement of [3H]- PDBu from Protein kinase C epsilon C1b domain
Listing: Ki of selected compounds
PROPERTY_NAME: Ki

{"MOLECULAR_STRING": "CC(C)[C@H]1C(=O)N[C@H](CO)Cc2c[nH]c3cccc(c23)N1C", "VAL": "7.7 nM"}
{"MOLECULAR_STRING": "CC(C)[C@H]1C(=S)N[C@H](CO)Cc2c[nH]c3cccc(c23)N1C", "VAL": "41.5 nM"}

###

Listing: Ki of selected molecules
TARGET_UNDER_TEST: Protein kinase C delta type (Homo sapiens)
Sequence (Q05655 whole entry, the tested form may be a part): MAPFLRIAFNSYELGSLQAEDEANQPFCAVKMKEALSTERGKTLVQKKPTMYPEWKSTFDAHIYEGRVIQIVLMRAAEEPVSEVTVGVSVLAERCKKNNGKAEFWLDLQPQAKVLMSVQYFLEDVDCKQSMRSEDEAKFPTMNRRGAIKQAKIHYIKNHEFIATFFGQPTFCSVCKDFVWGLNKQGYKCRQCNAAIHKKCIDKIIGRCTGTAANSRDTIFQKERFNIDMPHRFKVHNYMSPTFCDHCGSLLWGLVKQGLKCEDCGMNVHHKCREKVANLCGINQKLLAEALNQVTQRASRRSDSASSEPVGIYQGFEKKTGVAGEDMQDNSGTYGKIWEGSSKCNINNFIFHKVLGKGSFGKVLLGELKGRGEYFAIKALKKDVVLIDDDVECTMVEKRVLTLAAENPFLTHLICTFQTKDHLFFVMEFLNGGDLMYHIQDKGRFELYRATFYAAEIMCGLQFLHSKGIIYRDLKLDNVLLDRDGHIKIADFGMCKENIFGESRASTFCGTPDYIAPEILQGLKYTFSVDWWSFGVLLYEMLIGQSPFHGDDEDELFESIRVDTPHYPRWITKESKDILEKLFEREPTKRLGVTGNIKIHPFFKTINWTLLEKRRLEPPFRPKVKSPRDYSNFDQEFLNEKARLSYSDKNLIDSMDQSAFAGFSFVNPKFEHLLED
METHOD_DESCRIPTION: Displacement of [3H]- PDBu from Protein kinase C delta C1a domain

{"MOLECULAR_STRING": "CC(C)[C@H]1C(=S)N[C@H](CO)Cc2c[nH]c3cccc(c23)N1C", "Ki, nM": 2950}
{"MOLECULAR_STRING": "CC(C)[C@H]1C(=O)N[C@H](CO)Cc2c[nH]c3cccc(c23)N1C", "Ki, nM": 1900}

###

TARGET_UNDER_TEST: Protein kinase C delta type (Homo sapiens)
METHOD_DESCRIPTION: Displacement of [3H]- PDBu from Protein kinase C delta C1b domain

{"COMPOUND": "CC(C)[C@H]1C(=O)N[C@H](CO)Cc2c[nH]c3cccc(c23)N1C [INDOLACTUM]", "Ki (µM)": 0.0083}
{"COMPOUND": "CC(C)[C@H]1C(=S)N[C@H](CO)Cc2c[nH]c3cccc(c23)N1C", "Ki (µM)": 0.0675}

###

TARGET_UNDER_TEST: Protein kinase C epsilon type (Homo sapiens, UniProt Q02156)
Sequence (Q02156 whole entry): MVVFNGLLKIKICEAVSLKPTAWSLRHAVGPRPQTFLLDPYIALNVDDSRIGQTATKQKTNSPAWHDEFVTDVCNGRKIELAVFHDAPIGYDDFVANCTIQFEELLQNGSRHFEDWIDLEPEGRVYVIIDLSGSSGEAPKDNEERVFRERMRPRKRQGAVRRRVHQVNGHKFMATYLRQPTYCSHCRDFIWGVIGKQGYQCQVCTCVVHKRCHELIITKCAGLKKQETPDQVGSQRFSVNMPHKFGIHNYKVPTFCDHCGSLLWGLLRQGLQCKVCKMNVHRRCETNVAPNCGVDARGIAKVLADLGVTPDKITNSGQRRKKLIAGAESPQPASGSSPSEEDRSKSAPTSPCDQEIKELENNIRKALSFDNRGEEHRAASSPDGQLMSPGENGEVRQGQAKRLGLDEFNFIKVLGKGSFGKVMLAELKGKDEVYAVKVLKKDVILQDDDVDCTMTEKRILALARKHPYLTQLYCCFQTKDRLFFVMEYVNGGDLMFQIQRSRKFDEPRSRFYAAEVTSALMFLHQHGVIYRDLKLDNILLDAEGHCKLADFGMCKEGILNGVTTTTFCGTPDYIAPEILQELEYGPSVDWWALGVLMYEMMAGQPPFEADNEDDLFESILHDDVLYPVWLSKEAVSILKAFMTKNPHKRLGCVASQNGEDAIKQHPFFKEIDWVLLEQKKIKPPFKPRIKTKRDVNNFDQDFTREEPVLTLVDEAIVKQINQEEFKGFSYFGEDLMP
METHOD_DESCRIPTION: Displacement of [3H]- PDBu from Protein kinase C epsilon C1a domain
pKi: −log10 of the molar value.
Listing: pKi of selected compounds

{"COMPOUND": "CC(C)[C@H]1C(=O)N[C@H](CO)Cc2c[nH]c3cccc(c23)N1C [INDOLACTUM]", "pKi": 5.39}
{"COMPOUND": "CC(C)[C@H]1C(=S)N[C@H](CO)Cc2c[nH]c3cccc(c23)N1C", "pKi": 5.41}

###

Listing: Ki of selected molecules
TARGET_UNDER_TEST: Protein kinase C beta type (Homo sapiens, UniProt P05771)
Sequence (P05771 whole entry, the tested form may be a part): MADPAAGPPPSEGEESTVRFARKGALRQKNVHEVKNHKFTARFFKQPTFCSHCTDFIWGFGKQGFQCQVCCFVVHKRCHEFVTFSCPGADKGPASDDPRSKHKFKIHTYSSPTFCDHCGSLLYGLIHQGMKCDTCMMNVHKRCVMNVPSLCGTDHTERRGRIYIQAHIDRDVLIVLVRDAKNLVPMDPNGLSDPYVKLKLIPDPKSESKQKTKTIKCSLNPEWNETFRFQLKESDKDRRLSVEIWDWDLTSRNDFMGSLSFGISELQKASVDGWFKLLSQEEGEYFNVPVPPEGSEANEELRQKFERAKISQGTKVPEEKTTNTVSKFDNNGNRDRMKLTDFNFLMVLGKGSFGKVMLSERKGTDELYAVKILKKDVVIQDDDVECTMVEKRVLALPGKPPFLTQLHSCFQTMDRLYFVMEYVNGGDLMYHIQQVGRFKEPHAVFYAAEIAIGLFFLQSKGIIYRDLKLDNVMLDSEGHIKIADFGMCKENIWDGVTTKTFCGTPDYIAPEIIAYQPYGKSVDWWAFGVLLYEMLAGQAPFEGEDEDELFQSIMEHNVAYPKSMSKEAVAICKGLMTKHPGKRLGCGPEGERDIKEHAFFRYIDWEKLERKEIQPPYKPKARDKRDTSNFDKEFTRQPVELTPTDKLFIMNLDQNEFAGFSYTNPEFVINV
METHOD_DESCRIPTION: Displacement of [3H]- PDBu from Protein kinase C beta C1a domain
PROPERTY_NAME: Ki (µM)

{"MOLECULE": "CC(C)[C@H]1C(=S)N[C@H](CO)Cc2c[nH]c3cccc(c23)N1C", "PROPERTY_NAME": "Ki", "VAL": 0.18}
{"MOLECULE": "CC(C)[C@H]1C(=O)N[C@H](CO)Cc2c[nH]c3cccc(c23)N1C [INDOLACTUM]", "PROPERTY_NAME": "Ki", "VAL": 0.173}

###

Listing: Ki of selected compounds
TARGET_UNDER_TEST: UniProt:P05129
METHOD_DESCRIPTION: Displacement of [3H]- PDBu from Protein kinase C gamma C1b domain

{"COMPOUND": "CC(C)[C@H]1C(=S)N[C@H](CO)Cc2c[nH]c3cccc(c23)N1C", "Ki": "0.288 µM"}
{"COMPOUND": "CC(C)[C@H]1C(=O)N[C@H](CO)Cc2c[nH]c3cccc(c23)N1C [INDOLACTUM]", "Ki": "0.213 µM"}

###

TARGET_UNDER_TEST: Protein kinase C theta type (Homo sapiens, UniProt Q04759)
Sequence (Q04759 whole entry): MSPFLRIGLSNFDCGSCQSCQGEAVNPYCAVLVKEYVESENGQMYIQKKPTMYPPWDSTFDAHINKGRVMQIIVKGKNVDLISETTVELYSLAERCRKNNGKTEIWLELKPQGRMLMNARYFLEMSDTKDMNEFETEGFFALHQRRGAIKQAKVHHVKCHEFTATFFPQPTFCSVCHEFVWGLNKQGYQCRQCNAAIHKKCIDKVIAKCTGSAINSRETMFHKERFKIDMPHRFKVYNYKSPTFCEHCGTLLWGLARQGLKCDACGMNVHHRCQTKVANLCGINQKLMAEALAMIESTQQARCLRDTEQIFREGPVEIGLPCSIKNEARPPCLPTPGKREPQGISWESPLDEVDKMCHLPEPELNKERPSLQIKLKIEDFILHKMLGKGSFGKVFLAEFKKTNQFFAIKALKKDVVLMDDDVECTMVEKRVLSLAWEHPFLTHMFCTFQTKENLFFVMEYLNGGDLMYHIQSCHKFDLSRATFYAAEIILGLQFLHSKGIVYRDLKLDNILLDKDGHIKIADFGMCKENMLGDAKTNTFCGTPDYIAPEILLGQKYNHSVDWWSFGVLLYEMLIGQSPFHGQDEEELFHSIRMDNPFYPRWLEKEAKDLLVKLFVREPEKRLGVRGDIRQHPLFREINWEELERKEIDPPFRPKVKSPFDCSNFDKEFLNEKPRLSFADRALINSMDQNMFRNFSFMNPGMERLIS
pKi: −log10 of the molar value.

{"COMPOUND": "CC(C)[C@H]1C(=O)N[C@H](CO)Cc2c[nH]c3cccc(c23)N1C [INDOLACTUM]", "pKi": 8.06}

###

TARGET_UNDER_TEST: Protein kinase C beta type (Homo sapiens, UniProt P05771)
METHOD_DESCRIPTION: Displacement of [3H]- PDBu from Protein kinase C beta C1b domain
Listing: Ki of selected compounds

{"COMPOUND": "CC(C)[C@H]1C(=O)N[C@H](CO)Cc2c[nH]c3cccc(c23)N1C [INDOLACTUM]", "TARGET_UNDER_TEST": "Protein kinase C beta type (Homo sapiens, UniProt P05771)", "UNIT_LABEL": "nM", "Ki": 136}
{"COMPOUND": "CC(C)[C@H]1C(=S)N[C@H](CO)Cc2c[nH]c3cccc(c23)N1C", "TARGET_UNDER_TEST": "Protein kinase C beta type (Homo sapiens, UniProt P05771)", "UNIT_LABEL": "nM", "Ki": 226}
